TARGET ENTITY: S1P1 (Homo sapiens (Human))
METHOD: 35S-GTPγS binding, membranes from CHO cells expressing S1P1
STATED CONDITIONS: 60 min 30° C., read-out: S1P1 GTPgS EC50
QUANTITY KIND: pEC50
# reply with the number alone; pEC50 is -log10 of concentration in mol/L

- MOLECULE: "COc1ccccc1-c1noc(-c2ccc(N3CCOCC3)c([N+](=O)[O-])c2)n1 [Compound I2]"
  VALUE REPORTED: 7.29
- MOLECULE: "COc1ccccc1-c1noc(-c2ccc(-c3c(C)noc3C)c(C)c2)n1 [Compound I50]"
  VALUE REPORTED: 6.76
- MOLECULE: "O=[N+]([O-])c1cc(-c2nc(-c3ccccc3OC(F)(F)F)no2)ccc1N1CCCC1 [Compound I14]"
  VALUE REPORTED: 6.37
- MOLECULE: "COc1ccccc1-c1noc(-c2ccc(-c3ccccc3C(F)(F)F)c(C)c2)n1 [Compound I24]"
  VALUE REPORTED: 7.24
- MOLECULE: "COc1ccccc1-c1noc(-c2ccc(CC(C)C)cc2)n1 [Compound I28]"
  VALUE REPORTED: 6.79

(Q) Any idea what its pEC50 is? The molecule is COc1ccc(F)cc1-c1noc(-c2ccc(N3CCCCC3C)c(C(F)(F)F)c2)n1 (centres unmarked) [Compound I63]
(A) 9.00

(Q) Record request: pEC50 value, item COc1ccc(F)cc1-c1noc(-c2ccc(-c3ccccc3C)c(C)c2)n1 [Compound I33]
(A) 8.22

(Q) Using the record for CCOc1ccccc1-c1noc(-c2ccc(N3CCCCC3C)c([N+](=O)[O-])c2)n1 (centres unmarked) [Compound I10] , report its pEC50.
(A) 7.62

(Q) If you can, please state the reported pEC50 value of COc1ccc(-c2ccc(-c3nc(-c4ccccc4OC)no3)cc2C)c(OC)c1 [Compound I47] .
(A) 5.92

(Q) Look up pEC50: COc1ccccc1-c1ccc(-c2nc(-c3ccccc3OC(F)(F)F)no2)cc1C [Compound I45]
(A) 8.00

(Q) Which pEC50 is reported for this molecule? COc1ccccc1-c1noc(-c2ccc(-c3ccccc3OC)c(C)c2)n1 [Compound I40]
(A) 7.57

====

TARGET ENTITY: UniProt:Q99500
METHOD: 35S-GTPγS binding, membranes from CHO cells expressing S1P3
STATED CONDITIONS: 60 min 30° C., read-out: S1P3 GTPgs EC50
QUANTITY KIND: pEC50
The scale used: pEC50 is minus the common logarithm of the concentration in molar units.

- MOLECULE: "COc1ccccc1-c1noc(-c2ccc(-c3cscc3C)c(OC)c2)n1 [Compound I48]"
  pEC50: 5.66

Then this molecule:
(Q) I have this molecule here, COc1ccc(F)cc1-c1noc(-c2ccc(N3CCCCC3C)c(C#N)c2)n1 (centres unmarked) [Compound I71] , and I need its recorded pEC50.
(A) 7.13

====

TARGET ENTITY: UniProt:P21453
METHOD: 35S-GTPγS binding, membranes from CHO cells expressing S1P1
STATED CONDITIONS: 60 min 30° C., read-out: S1P1 GTPgS EC50
Recorded pEC50 by entry
Please keep in mind that pEC50 is minus log10 of the molar concentration; only the number is needed.

As a guide, the following entries are already answered.
- COMPOUND: "Cc1cc(-c2nc(-c3ccccc3OC(F)(F)F)no2)ccc1-c1c(C)noc1C [Compound I49]"
  VALUE REPORTED: 6.72
- COMPOUND: "Cc1cscc1-c1ccc(-c2nc(-c3ccccc3OC(F)(F)F)no2)cc1C(F)(F)F [Compound I70]"
  VALUE REPORTED: 8.70
- COMPOUND: "COc1ccccc1-c1noc(-c2ccc(-c3cscc3C)c(C(F)(F)F)c2)n1 [Compound I57]"
  VALUE REPORTED: 9.00
- COMPOUND: "COc1cc(-c2nc(-c3ccccc3OC(F)(F)F)no2)ccc1-c1ccccc1C [Compound I53]"
  VALUE REPORTED: 7.85
- COMPOUND: "Cc1cc(-c2nc(-c3ccccc3OC(F)(F)F)no2)ccc1-c1ccccc1C(F)(F)F [Compound I23]"
  VALUE REPORTED: 8.00
- COMPOUND: "COc1ccccc1-c1noc(-c2ccc(-c3ccccc3C)c([N+](=O)[O-])c2)n1 [Compound I26]"
  VALUE REPORTED: 8.05

(Q) Query: pEC50; subject: COc1ccccc1-c1noc(-c2ccc(N3CCCCC3)c([N+](=O)[O-])c2)n1 [Compound I1]
(A) 7.57

(Q) # query: pEC50 of entry Cc1cc(-c2nc(-c3ccccc3OC(F)(F)F)no2)ccc1N1CCCCC1 [Compound I58]
(A) 7.41

(Q) Give its pEC50 value. Item: Cc1cc(-c2nc(-c3ccccc3OC(F)(F)F)no2)ccc1N1CCOCC1 [Compound I65]
(A) 6.89

(Q) What value of pEC50 has been recorded for this entry: CCOc1ccccc1-c1noc(-c2ccc(-c3ccccc3C)c(C)c2)n1 [Compound I22]
(A) 7.29

(Q) pEC50 lookup needed for COCCN(CCOC)c1ccc(-c2nc(-c3ccccc3OC)no2)cc1[N+](=O)[O-] [Compound I52] , thanks.
(A) 6.53

(Q) Quick one: pEC50 of CC(C)Cc1ccc(-c2nc(-c3ccccc3OC(F)(F)F)no2)cc1 [Compound I30] ?
(A) 7.19

(Q) Field request: pEC50 | item: COc1ccccc1-c1noc(-c2ccc(N3CCCCC3C)c([N+](=O)[O-])c2)n1 (centres unmarked) [Compound I9]
(A) 8.15

(Q) Field request: pEC50 | item: COc1ccc(F)cc1-c1noc(-c2ccc(N3CCCCC3C)c(N)c2)n1 (centres unmarked) [Compound I69]
(A) 7.62

====

TARGET ENTITY: S1P1 (Homo sapiens (Human), UniProt P21453)
Sequence (P21453 whole entry, species assumed): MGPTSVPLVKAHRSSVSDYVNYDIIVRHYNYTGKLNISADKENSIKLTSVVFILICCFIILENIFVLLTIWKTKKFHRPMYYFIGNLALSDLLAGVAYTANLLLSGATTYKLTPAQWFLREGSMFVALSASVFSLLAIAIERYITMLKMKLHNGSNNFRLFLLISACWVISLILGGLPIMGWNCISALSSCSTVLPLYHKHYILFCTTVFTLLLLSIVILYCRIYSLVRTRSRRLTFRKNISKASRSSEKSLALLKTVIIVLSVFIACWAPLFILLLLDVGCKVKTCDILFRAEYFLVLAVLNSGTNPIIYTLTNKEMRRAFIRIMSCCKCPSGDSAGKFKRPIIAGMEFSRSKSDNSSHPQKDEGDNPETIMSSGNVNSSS
METHOD: 35S-GTPγS binding, membranes from CHO cells expressing S1P1
STATED CONDITIONS: 60 min 30° C., read-out: S1P1 GTPgS EC50
pEC50: −log10 of the molar value.
I would appreciate it if you labelled entries Satisfied when pEC50 is 7 or higher, otherwise Not satisfied.

- MOLECULE: "COc1ccccc1-c1noc(-c2ccc(N3CCCC(F)(F)C3)c(N(S(C)(=O)=O)S(C)(=O)=O)c2)n1 [Compound I37]"
  TARGET ENTITY: "S1P1 (Homo sapiens (Human), UniProt P21453)"
  DISCRETE LABEL: "Not satisfied"
- MOLECULE: "COc1ccc(-c2ccc(-c3nc(-c4ccccc4OC(F)(F)F)no3)cc2C)c(OC)c1 [Compound I56]"
  TARGET ENTITY: "S1P1 (Homo sapiens (Human), UniProt P21453)"
  DISCRETE LABEL: "Not satisfied"
- MOLECULE: "COc1ccc(F)cc1-c1noc(-c2ccc(-c3ccccc3C)c(C(=O)O)c2)n1 [Compound I79]"
  TARGET ENTITY: "S1P1 (Homo sapiens (Human), UniProt P21453)"
  DISCRETE LABEL: "Not satisfied"
- MOLECULE: "FC(F)(F)Oc1ccccc1-c1noc(-c2ccc(C3CCCCC3)cc2)n1 [Compound I29]"
  TARGET ENTITY: "S1P1 (Homo sapiens (Human), UniProt P21453)"
  DISCRETE LABEL: "Satisfied"
- MOLECULE: "COc1ccc(F)cc1-c1noc(-c2ccc(-c3ccccc3C)c(CN(C)C)c2)n1 [Compound I78]"
  TARGET ENTITY: "S1P1 (Homo sapiens (Human), UniProt P21453)"
  DISCRETE LABEL: "Satisfied"

(Q) Evaluate COc1ccccc1-c1noc(-c2ccc(N3CCCCCC3)c([N+](=O)[O-])c2)n1 [Compound I16] : pEC50 at minimum 7?
(A) Not satisfied

(Q) Is it the case that FC(F)(F)Oc1ccccc1-c1noc(-c2ccc(N3CCCCC3)c(C(F)(F)F)c2)n1 [Compound I61] has pEC50 reaching or exceeding 7?
(A) Satisfied

(Q) Would you say COc1ccccc1-c1noc(-c2ccc(-c3ccccc3C)c(C(F)(F)F)c2)n1 [Compound I62] shows pEC50 at minimum 7?
(A) Satisfied

====

TARGET ENTITY: S1P3 (Homo sapiens (Human), UniProt Q99500)
Sequence (Q99500 whole entry, species assumed): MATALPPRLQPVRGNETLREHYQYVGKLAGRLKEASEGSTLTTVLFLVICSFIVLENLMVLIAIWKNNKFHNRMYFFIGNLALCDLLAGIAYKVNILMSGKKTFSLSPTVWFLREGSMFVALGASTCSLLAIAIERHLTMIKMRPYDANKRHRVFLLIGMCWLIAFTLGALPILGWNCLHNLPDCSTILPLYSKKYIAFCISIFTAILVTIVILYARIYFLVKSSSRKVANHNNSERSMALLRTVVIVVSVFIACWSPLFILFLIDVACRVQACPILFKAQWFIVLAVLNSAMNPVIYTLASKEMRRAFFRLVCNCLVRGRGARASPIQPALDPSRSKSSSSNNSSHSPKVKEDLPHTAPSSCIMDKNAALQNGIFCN
METHOD: 35S-GTPγS binding, membranes from CHO cells expressing S1P3
STATED CONDITIONS: 60 min 30° C., read-out: S1P3 GTPgs EC50
pEC50: −log10 of the molar value.
QUANTITY KIND: pEC50

Would you please look over these solved cases?
- COMPOUND: "FC(F)(F)Oc1ccccc1-c1noc(-c2ccc(N3CCOCC3)c(C(F)(F)F)c2)n1"
  TARGET ENTITY: "S1P3 (Homo sapiens (Human), UniProt Q99500)"
  pEC50: "< 4.52"
- COMPOUND: "CCOc1ccccc1-c1noc(-c2ccc(N3CCCCC3C)c([N+](=O)[O-])c2)n1 (stereo not drawn)"
  TARGET ENTITY: "S1P3 (Homo sapiens (Human), UniProt Q99500)"
  pEC50: "< 4.52"

(Q) Param item = COc1ccccc1-c1noc(-c2ccc(-c3cscc3C)c(C(F)(F)F)c2)n1 ; retrieve measured pEC50.
(A) < 4.70
